Give measured IC50 for each item. Keep answers brief.
System Under Test: UniProtKB P36897
Sequence (P36897 162-503): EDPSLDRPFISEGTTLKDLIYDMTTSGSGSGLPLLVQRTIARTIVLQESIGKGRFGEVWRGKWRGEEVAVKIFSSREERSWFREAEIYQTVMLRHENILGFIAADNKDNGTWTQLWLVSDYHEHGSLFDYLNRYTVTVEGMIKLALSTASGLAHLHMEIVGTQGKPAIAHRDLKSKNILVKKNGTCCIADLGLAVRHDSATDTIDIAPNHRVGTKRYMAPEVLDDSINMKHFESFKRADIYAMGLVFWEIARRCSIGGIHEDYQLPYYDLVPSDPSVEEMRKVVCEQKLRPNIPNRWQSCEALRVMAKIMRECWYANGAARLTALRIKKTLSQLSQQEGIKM
Assay Method Text: ALK5 Enzyme Assay 2 (fluorescence polarisation probe displacement)
Assay type: binding
Parameters: 6His tagged human ALK5 (residues162-503) was grown and purified from insect cells; 6His; made in house; host or cells: insect cells
Assay Conditions: read-out: EAA2: activity (μM) using Enzyme Assay 2
Numbers only, in µM.

Some molecules with recorded IC50:
[
  {
    "Structure Smiles String": "Cc1cc(Oc2ccnc(Nc3cccc(C(=O)NCc4ccncc4)c3)c2)c(-c2ccccn2)nc1C",
    "Unit Name": "µM",
    "IC50": 0.00576
  },
  {
    "Structure Smiles String": "CC(=O)Nc1cc(Nc2cc(Oc3ccc(C)nc3C)ccn2)ccc1C",
    "Unit Name": "µM",
    "IC50": 0.0145
  },
  {
    "Structure Smiles String": "COc1cc(Nc2cc(Oc3ccc(C)nc3-c3cnn(C)c3)ccn2)cc(OC)c1OC",
    "Unit Name": "µM",
    "IC50": 0.0169
  }
]

Kindly review the next molecule as well.
[Q] Form field - read-out: IC50; system: UniProtKB P36897; submitted item: Cc1ccc(Oc2ccnc(Nc3cccc(CN4CCN(C(=O)C5CCOCC5)CC4)c3)c2)c(C)n1
[A] 0.0238
